Sourced from patent US20240400591A1

# assay.target: His-p53 Y220C (94-294) protein (Homo sapiens, UniProt P04637, Y220C)
# Construct: His-p53 Y220C (94-294) protein
# experimental.details: In vitro DNA binding assay (HTRF)
# stated.conditions: % activation normalized to 2 μM Ref-1a high control
endpoint.label: pEC50
Answers are plain numbers, as −log10 of the molar value.

Record pEC50 per entry; entries follow.
1. COc1cc(P(C)(C)=O)ccc1NCC#Cc1sc2c(NC3CCN(C)CC3(F)F)cccc2c1CC(F)(F)F (stereo not shown) [Example 43]
2. COc1cc(P(C)(C)=O)ccc1NCC#Cc1sc2c(N[C@@H]3CCN(C4CCOCC4)C[C@@H]3F)cccc2c1CC(F)(F)F (racemic) [Example 73]
3. CN1CCC(Nc2cccc3c(CC(F)(F)F)c(C#CCNc4ccc(P(C)(C)=O)c5c4OCC5)sc23)C(F)C1 (stereo not shown) [Example 152]
4. COc1cc(S(C)(=O)=O)ccc1NCC#Cc1sc2c(NC3CCNCC3)cccc2c1CC(F)(F)F [Example 38]

Response:
1. 6.41
2. 7.15
3. 7.72
4. 6.71

Record pEC50 per entry; entries follow.
1. COc1cc(P(C)(C)=O)ccc1NCC#Cc1sc2c(NC3CCN(C)CC3C#N)cccc2c1CC(F)(F)F (stereo not shown) [Example 90]
2. COc1cc(P(C)(C)=O)ccc1NCC#Cc1sc2c(N[C@@H]3CCN(C4CCCCOC4)C[C@@H]3F)cccc2c1CC(F)(F)F (stereo partly shown) [Example 185]
3. COc1cc(P(=O)(C2CC2)C2CC2)ccc1NCC#Cc1sc2c(N[C@H]3CCN(C)C[C@H]3F)cccc2c1CC(F)(F)F [Example 140]

Response:
1: 6.57; 2: 7.27; 3: 6.89

====

# assay.target: His-p53 Y220C (94-294) protein (Homo sapiens, UniProt P04637, Y220C)
# Construct: His-p53 Y220C (94-294) protein
# experimental.details: In vitro DNA binding assay (HTRF)
# stated.conditions: % activation normalized to 2 μM Ref-1a high control
endpoint.label: EC50

| compound | EC50 |
| --- | --- |
| COc1cc(C(=O)NC2CCN(C)CC2F)ccc1NCC#Cc1sc2c(NC3CCN(C)CC3F)cccc2c1CC(F)(F)F (stereo not shown) | 44 nM |
| COc1cc(S(C)(=O)=O)ccc1NCC#Cc1sc2c(NC3CCC(N(C)C)CC3)cccc2c1CC(F)(F)F (stereo not shown) | 124 nM |
| CNC(=O)c1cc(NCC#Cc2sc3c(NC4CCN(C)CC4F)cccc3c2CC(F)(F)F)c(OC)cc1P(C)(C)=O (racemic) | 33 nM |

Kindly review the next compound as well.
Query: I have this compound here, CN1CCC(Nc2cccc3c(CC(F)(F)F)c(C#CCNc4ccc(S(C)(=O)=O)c5cc[nH]c45)sc23)CC1 , and I need its recorded EC50.
Response: 535 nM

====

Exercise: for every item that follows, state its recorded pEC50.
# assay.target: His-p53 Y220C (94-294) protein (Homo sapiens, UniProt P04637, Y220C)
# Construct: His-p53 Y220C (94-294) protein
# experimental.details: In vitro DNA binding assay (HTRF)
# stated.conditions: % activation normalized to 2 μM Ref-1a high control
Give bare numbers, as −log10 of the molar value.

Would you please look over these solved cases?
| molecule | endpoint.label | value.measured |
| --- | --- | --- |
| CP(C)(=O)c1ccc(NCC#Cc2sc3c(N[C@@H]4CCN(C5CCOCC5)C[C@@H]4F)cccc3c2CC(F)(F)F)c(OC2CC2)c1 [Example 161] | pEC50 | 7.14 |
| COc1cc(P(C)(C)=O)ccc1NCC#Cc1sc2c(NC3CCN(C4CCOCC4)CC3)cccc2c1CC(F)(F)F [Example 154] | pEC50 | 7.17 |
| CN1CC[C@@H](Nc2cccc3c(CC(F)(F)F)c(C#CCNc4ccc(P(C)(C)=O)cc4S(C)(=O)=O)sc23)[C@@H](F)C1 [Example 175] | pEC50 | 7.18 |

Kindly review the next molecule as well.
Query: I have this molecule here, COCCNC(=O)c1ccc(NCC#Cc2sc3c(N[C@@H]4CCN(C)C[C@@H]4F)cccc3c2CC(F)(F)F)c(OC)c1 (relative stereo) [Example 85] , and I need its recorded pEC50.
Response: 7.12
